ASSAY: Singlet oxygen formation quantum yield (phosphorescence emission at ~1270 nm vs phenazine standard)
Format: physicochemical
MEASUREMENT CONTEXT: In CHCl3, excitation 337 nm
Description: The evaluation of the photosensitizing efficiency of the aminosquaraine dyes was performed in chloroform, by determining the singlet oxygen formation quantum yields (ΦΔ). Phenazine was used as standard. The phosphorescence emission of singlet oxygen generated by the sensitizers at approximately 1270 nm is presented in Figure 2 and the determined quantum yields are summarized in Table 1. […]
Exercise: state measured Φ∆ (singlet oxygen generation quantum yield) for each of the compounds provided.
Reply: number alone, nothing else.

Req: Reported Φ∆ (singlet oxygen generation quantum yield) for CCN1C(=CC2=C(NCCO)C(=Cc3sc4cc(I)ccc4[n+]3CC)C2=O)Sc2cc(I)ccc21.[I-] [Dye 5d] : what is it?
Resp: 0.19

Req: Requested read-out: Φ∆ (singlet oxygen generation quantum yield). Entry: CCN1C(=CC2=C([O-])C(=Cc3sc4cc(I)ccc4[n+]3CC)C2=O)Sc2cc(I)ccc21 [Dye 3]
Resp: 0.05

Req: Which measured Φ∆ (singlet oxygen generation quantum yield) value corresponds to CCN1C(=CC2=C(N(C)CCO)C(=Cc3sc4cc(I)ccc4[n+]3CC)C2=O)Sc2cc(I)ccc21.[I-] [Dye 5e] ?
Resp: 0.16

Req: So what does the record say about Φ∆ (singlet oxygen generation quantum yield) for CCN1C(=CC2=C(NC)C(=Cc3sc4cc(I)ccc4[n+]3CC)C2=O)Sc2cc(I)ccc21.[I-] [Dye 5b] ?
Resp: 0.26

Req: Fill in: Φ∆ (singlet oxygen generation quantum yield) of CCN1C(=CC2=C(N(CCO)CCO)C(=Cc3sc4cc(I)ccc4[n+]3CC)C2=O)Sc2cc(I)ccc21.[I-] [Dye 5c] is ___
Resp: 0.09

Req: Which Φ∆ (singlet oxygen generation quantum yield) is reported for this compound? CCN1C(=CC2=C(N)C(=Cc3sc4cc(I)ccc4[n+]3CC)C2=O)Sc2cc(I)ccc21.[I-] [Dye 5a]
Resp: 0.22

====

ASSAY: Fluorescence quantum yield
Type: physicochemical
MEASUREMENT CONTEXT: In CHCl3
Could you label it met if measured ΦF (fluorescence quantum yield) is 0.03 or higher, and not met otherwise?

Req: Answer whether ΦF (fluorescence quantum yield) of CCN1C(=CC2=C(N(C)CCO)C(=Cc3sc4cc(I)ccc4[n+]3CC)C2=O)Sc2cc(I)ccc21.[I-] is greater than or equal to 0.03.
Resp: met

Req: Tell me whether ΦF (fluorescence quantum yield) is at least 0.03 here: CCN1C(=CC2=C(N)C(=Cc3sc4cc(I)ccc4[n+]3CC)C2=O)Sc2cc(I)ccc21.[I-]
Resp: not met

Req: ΦF (fluorescence quantum yield) >= 0.03 for CCN1C(=CC2=C(N(CCO)CCO)C(=Cc3sc4cc(I)ccc4[n+]3CC)C2=O)Sc2cc(I)ccc21.[I-] ?
Resp: not met

Req: I'd appreciate it if you could say whether CCN1C(=CC2=C(NCCO)C(=Cc3sc4cc(I)ccc4[n+]3CC)C2=O)Sc2cc(I)ccc21.[I-] has ΦF (fluorescence quantum yield) at least equal to 0.03.
Resp: met

====

Tested on: HepG2 (hepatocellular carcinoma)
ASSAY: SRB cytotoxicity, dark and after irradiation (photodynamic treatment)
Format: cell-based
MEASUREMENT CONTEXT: Homo sapiens, HepG2, light or radiation study, 0.5 h; Irradiated 30 min, halogen/tungsten lamp >500 nm; mean ± SD
Cut-off 200 nM on GI50: below means Condition met, at or above means Condition not met.

Req: Please indicate whether the reported GI50 of CCN1C(=CC2=C(N(C)CCO)C(=Cc3sc4cc(I)ccc4[n+]3CC)C2=O)Sc2cc(I)ccc21.[I-] is strictly below 200 nM.
Resp: Condition met

Req: Field: below-cutoff. Rule: recorded GI50 strictly less than 200 nM. Subject: CCN1C(=CC2=C(NCCO)C(=Cc3sc4cc(I)ccc4[n+]3CC)C2=O)Sc2cc(I)ccc21.[I-]
Resp: Condition not met

Req: Hi there! Is GI50 for CCN1C(=CC2=C(NC)C(=Cc3sc4cc(I)ccc4[n+]3CC)C2=O)Sc2cc(I)ccc21.[I-] below 200 nM, do you know?
Resp: Condition met

Req: I wonder whether CCN1C(=CC2=C(N)C(=Cc3sc4cc(I)ccc4[n+]3CC)C2=O)Sc2cc(I)ccc21.[I-] has GI50 below 200 nM. Can you tell?
Resp: Condition met

Req: Is the reported GI50 for CCN1C(=CC2=C(N(CCO)CCO)C(=Cc3sc4cc(I)ccc4[n+]3CC)C2=O)Sc2cc(I)ccc21.[I-] strictly below 200 nM?
Resp: Condition not met

====

ASSAY: SRB cytotoxicity in non-tumor porcine liver primary cell culture, dark and after irradiation
Format: cell-based
MEASUREMENT CONTEXT: pig, PLP2 porcine liver primary cell culture (non-tumor), Irradiated 30 min; non-tumor cells; mean ± SD
QUANTITY MEASURED: log10 GI50 (log10 of the value in nM)
Log scale reminder: GI50 in nM, then log10 taken.

Req: Need log10 GI50 of CCN1C(=CC2=C(N(CCO)CCO)C(=Cc3sc4cc(I)ccc4[n+]3CC)C2=O)Sc2cc(I)ccc21.[I-] , thanks.
Resp: 2.64

Req: Name the recorded log10 GI50 for CCN1C(=CC2=C(N(C)CCO)C(=Cc3sc4cc(I)ccc4[n+]3CC)C2=O)Sc2cc(I)ccc21.[I-] .
Resp: 2.62

Req: Which value of log10 GI50 has been reported for CCN1C(=CC2=C(NCCO)C(=Cc3sc4cc(I)ccc4[n+]3CC)C2=O)Sc2cc(I)ccc21.[I-] in the records?
Resp: 2.99

Req: If you can, please state the reported log10 GI50 value of CCN1C(=CC2=C(N)C(=Cc3sc4cc(I)ccc4[n+]3CC)C2=O)Sc2cc(I)ccc21.[I-] .
Resp: 3.30

Req: Using the record for CCN1C(=CC2=C(NC)C(=Cc3sc4cc(I)ccc4[n+]3CC)C2=O)Sc2cc(I)ccc21.[I-] , report its log10 GI50.
Resp: 1.48
